assay: self-splicing fitness, log relative to wild type (ln ratio); higher = more splicing; Tetrahymena group I intron in knt gene, E. coli kanamycin selection, DiMSum; sequences stand for … in CUCUCU…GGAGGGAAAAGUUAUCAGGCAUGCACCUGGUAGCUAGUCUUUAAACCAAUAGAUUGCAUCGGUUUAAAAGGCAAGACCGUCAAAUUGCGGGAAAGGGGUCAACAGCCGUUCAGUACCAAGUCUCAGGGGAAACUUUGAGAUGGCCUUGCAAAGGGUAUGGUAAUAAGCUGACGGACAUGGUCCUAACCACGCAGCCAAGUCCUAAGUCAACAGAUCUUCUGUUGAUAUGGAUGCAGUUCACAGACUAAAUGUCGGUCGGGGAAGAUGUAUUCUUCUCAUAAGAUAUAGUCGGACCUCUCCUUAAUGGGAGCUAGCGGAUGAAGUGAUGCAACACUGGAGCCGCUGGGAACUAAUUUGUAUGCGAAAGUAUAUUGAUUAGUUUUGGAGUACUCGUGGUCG; details: 30 °C;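 note: selection with 25 µg/mL kanamycin versus none on LB agar overnight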
Threshold rule: self-splicing fitness (ln) greater than or equal to -2 is Fulfilled; below that, Not fulfilled.

Qu. Kindly determine if self-splicing fitness (ln) recorded for AUCAAGCAAUAUUACGGGAC is above or exactly -2.
Ans. Not fulfilled

Qu. Kindly determine if self-splicing fitness (ln) recorded for AUAAAGCAAUAUUACGCGCG is above or exactly -2.
Ans. Fulfilled

Qu. Kindly determine if self-splicing fitness (ln) recorded for UAGUAGCAAUAUUACGUACC is above or exactly -2.
Ans. Not fulfilled

Qu. Kindly determine if self-splicing fitness (ln) recorded for CCCGAGCAAUAUUACGACGG is above or exactly -2.
Ans. Not fulfilled

Qu. Kindly determine if self-splicing fitness (ln) recorded for CACGAGCAAUAUUACGUGAU is above or exactly -2.
Ans. Not fulfilled

Qu. Kindly determine if self-splicing fitness (ln) recorded for AUGAAGCAAUAUUACGCCAU is above or exactly -2.
Ans. Fulfilled

Qu. Kindly determine if self-splicing fitness (ln) recorded for AUGAAGCAAUAUUACGUCUA is above or exactly -2.
Ans. Fulfilled

Qu. Kindly determine if self-splicing fitness (ln) recorded for GAAAAGCAAUAUUACGUCGU is above or exactly -2.
Ans. Fulfilled

Qu. Kindly determine if self-splicing fitness (ln) recorded for CGGUAGCAAUAUUACGAAGG is above or exactly -2.
Ans. Fulfilled

Qu. Kindly determine if self-splicing fitness (ln) recorded for CUCCAGCAAUAUUACGGCGA is above or exactly -2.
Ans. Not fulfilled

Qu. Kindly determine if self-splicing fitness (ln) recorded for CGUCAGCAAUAUUACGACCG is above or exactly -2.
Ans. Fulfilled

Qu. Kindly determine if self-splicing fitness (ln) recorded for AAGGAGCAAUAUUACGUAGA is above or exactly -2.
Ans. Not fulfilled

Qu. Kindly determine if self-splicing fitness (ln) recorded for CCUGAGCAAUAUUACGGUUU is above or exactly -2.
Ans. Not fulfilled

Qu. Kindly determine if self-splicing fitness (ln) recorded for UUCAAGCAAUAUUACGGCAA is above or exactly -2.
Ans. Fulfilled

Qu. Kindly determine if self-splicing fitness (ln) recorded for GCUGAGCAAUAUUACGCUGC is above or exactly -2.
Ans. Not fulfilled

Qu. Kindly determine if self-splicing fitness (ln) recorded for GGUAAGCAAUAUUACGGAAA is above or exactly -2.
Ans. Not fulfilled

Qu. Kindly determine if self-splicing fitness (ln) recorded for GCUGAGCAAUAUUACGUAAU is above or exactly -2.
Ans. Not fulfilled

Qu. Kindly determine if self-splicing fitness (ln) recorded for UCAUAGCAAUAUUACGAAUG is above or exactly -2.
Ans. Not fulfilled

Qu. Kindly determine if self-splicing fitness (ln) recorded for AUAUAGCAAUAUUACGGGCC is above or exactly -2.
Ans. Not fulfilled

Qu. Kindly determine if self-splicing fitness (ln) recorded for AGGCAGCAAUAUUACGAGGC is above or exactly -2.
Ans. Not fulfilled

Qu. Kindly determine if self-splicing fitness (ln) recorded for UUCCAGCAAUAUUACGGUAA is above or exactly -2.
Ans. Fulfilled

Qu. Kindly determine if self-splicing fitness (ln) recorded for UGAUAGCAAUAUUACGAGUU is above or exactly -2.
Ans. Not fulfilled

Qu. Kindly determine if self-splicing fitness (ln) recorded for UGCCAGCAAUAUUACGGUGG is above or exactly -2.
Ans. Not fulfilled

Qu. Kindly determine if self-splicing fitness (ln) recorded for GUAUAGCAAUAUUACGAGGA is above or exactly -2.
Ans. Not fulfilled

Qu. Kindly determine if self-splicing fitness (ln) recorded for AAAAAGCAAUAUUACGAGAC is above or exactly -2.
Ans. Not fulfilled

Qu. Kindly determine if self-splicing fitness (ln) recorded for ACCGAGCAAUAUUACGGCCC is above or exactly -2.
Ans. Not fulfilled

Qu. Kindly determine if self-splicing fitness (ln) recorded for GGUAAGCAAUAUUACGGUAA is above or exactly -2.
Ans. Fulfilled

Qu. Kindly determine if self-splicing fitness (ln) recorded for AGCUAGCAAUAUUACGUGUC is above or exactly -2.
Ans. Not fulfilled

Qu. Kindly determine if self-splicing fitness (ln) recorded for UACAAGCAAUAUUACGGGUA is above or exactly -2.
Ans. Fulfilled

Qu. Kindly determine if self-splicing fitness (ln) recorded for CAAAAGCAAUAUUACGUUGG is above or exactly -2.
Ans. Not fulfilled

Qu. Kindly determine if self-splicing fitness (ln) recorded for CCUAAGCAAUAUUACGUCAG is above or exactly -2.
Ans. Fulfilled

Qu. Kindly determine if self-splicing fitness (ln) recorded for ACGUAGCAAUAUUACGAGUG is above or exactly -2.
Ans. Not fulfilled

Qu. Kindly determine if self-splicing fitness (ln) recorded for ACUGAGCAAUAUUACGUGAG is above or exactly -2.
Ans. Fulfilled

Qu. Kindly determine if self-splicing fitness (ln) recorded for AGUGAGCAAUAUUACGUGGA is above or exactly -2.
Ans. Not fulfilled

Qu. Kindly determine if self-splicing fitness (ln) recorded for CACGAGCAAUAUUACGGCUG is above or exactly -2.
Ans. Fulfilled

Qu. Kindly determine if self-splicing fitness (ln) recorded for CCAUAGCAAUAUUACGCCUG is above or exactly -2.
Ans. Fulfilled

Qu. Kindly determine if self-splicing fitness (ln) recorded for UGGUAGCAAUAUUACGAUGA is above or exactly -2.
Ans. Fulfilled

Qu. Kindly determine if self-splicing fitness (ln) recorded for GGAAAGCAAUAUUACGGUAU is above or exactly -2.
Ans. Fulfilled

Qu. Kindly determine if self-splicing fitness (ln) recorded for UUAGAGCAAUAUUACGCAUA is above or exactly -2.
Ans. Not fulfilled

Qu. Kindly determine if self-splicing fitness (ln) recorded for GUUCAGCAAUAUUACGCAGC is above or exactly -2.
Ans. Not fulfilled

Qu. Kindly determine if self-splicing fitness (ln) recorded for AUCGAGCAAUAUUACGCUGU is above or exactly -2.
Ans. Not fulfilled

Qu. Kindly determine if self-splicing fitness (ln) recorded for GUGAAGCAAUAUUACGUAGG is above or exactly -2.
Ans. Not fulfilled

Qu. Kindly determine if self-splicing fitness (ln) recorded for GGUGAGCAAUAUUACGGCUU is above or exactly -2.
Ans. Fulfilled

Qu. Kindly determine if self-splicing fitness (ln) recorded for ACCGAGCAAUAUUACGGCGC is above or exactly -2.
Ans. Fulfilled

Qu. Kindly determine if self-splicing fitness (ln) recorded for GGGGAGCAAUAUUACGCCGU is above or exactly -2.
Ans. Not fulfilled

Qu. Kindly determine if self-splicing fitness (ln) recorded for GCGUAGCAAUAUUACGAUAA is above or exactly -2.
Ans. Fulfilled

Qu. Kindly determine if self-splicing fitness (ln) recorded for AGCGAGCAAUAUUACGCCUA is above or exactly -2.
Ans. Fulfilled

Qu. Kindly determine if self-splicing fitness (ln) recorded for UAACAGCAAUAUUACGGUAG is above or exactly -2.
Ans. Fulfilled

Qu. Kindly determine if self-splicing fitness (ln) recorded for ACUUAGCAAUAUUACGCCAU is above or exactly -2.
Ans. Not fulfilled

Qu. Kindly determine if self-splicing fitness (ln) recorded for CUGAAGCAAUAUUACGCUUG is above or exactly -2.
Ans. Not fulfilled

Qu. Kindly determine if self-splicing fitness (ln) recorded for GCCAAGCAAUAUUACGCAUG is above or exactly -2.
Ans. Not fulfilled

Qu. Kindly determine if self-splicing fitness (ln) recorded for GAAUAGCAAUAUUACGGGUC is above or exactly -2.
Ans. Fulfilled

Qu. Kindly determine if self-splicing fitness (ln) recorded for GUAGAGCAAUAUUACGGGAC is above or exactly -2.
Ans. Fulfilled

Qu. Kindly determine if self-splicing fitness (ln) recorded for GCUGAGCAAUAUUACGAAAU is above or exactly -2.
Ans. Not fulfilled

Qu. Kindly determine if self-splicing fitness (ln) recorded for ACGAAGCAAUAUUACGAAAU is above or exactly -2.
Ans. Not fulfilled

Qu. Kindly determine if self-splicing fitness (ln) recorded for AAUUAGCAAUAUUACGCCUA is above or exactly -2.
Ans. Fulfilled

Qu. Kindly determine if self-splicing fitness (ln) recorded for CUAUAGCAAUAUUACGCCAG is above or exactly -2.
Ans. Fulfilled

Qu. Kindly determine if self-splicing fitness (ln) recorded for GAAGAGCAAUAUUACGGUGG is above or exactly -2.
Ans. Not fulfilled
